test system: HCT-116 cells; assay: MTT cytotoxicity assay, HCT-116; type: cell-based, human; details: HCT-116, 48 h; IC50 healthy cells (MRC-5)/IC50 tumor cells
Recorded Selectivity index (SI) values for a group of molecules are listed next.
Enter a number only.

Please review the entries below; each comes with its answer.
{"columns": ["molecule", "metric.name", "val"],
 "data": [
  ["COc1cc(/C=C/C(=O)C2CC2)ccc1OCC(=O)O", "Selectivity index (SI)", 10.62],
  ["COc1cc(/C=C/C(=O)C(C)C)ccc1OCC(=O)O [E2]", "Selectivity index (SI)", 39.22],
  ["COc1cc(/C=C/C(C)=O)ccc1OCC(=O)O [E1]", "Selectivity index (SI)", 24.75]
]}

Prompt: Give the measured Selectivity index (SI) of `COc1cc(/C=C/C(=O)CC(C)C)ccc1OCC(=O)O` .
Completion: 14.71

---

test system: HeLa cells; assay: Cell cycle analysis (PI, flow cytometry), HeLa; format: cell-based, human; details: IC50 concentration, 48 h; control 29.9%
Recorded % OF HELA CELLS, G2/M values for a group of compounds are listed next.
Report as a plain number; the unit % is understood.

{"columns": ["compound", "% OF HELA CELLS, G2/M, %"],
 "data": [
  ["COc1cc(/C=C/C(=O)C2CC2)ccc1OCC(=O)O", 61.9],
  ["COc1cc(/C=C/C(=O)CC(C)C)ccc1OCC(=O)O", 58.3]
]}

Prompt: Give the measured % OF HELA CELLS, G2/M of COc1cc(/C=C/C(=O)C(C)C)ccc1OCC(=O)O [E2] .
Completion: 66

Prompt: Try this compound next: COc1cc(/C=C/C(C)=O)ccc1OCC(=O)O [E1]
Completion: 66.9

---

system: HCT-116 cells; experiment: Cell cycle analysis (PI, flow cytometry), HCT-116; type: cell-based, human; settings: IC50 concentration, 48 h; control 27.4%
metric.name: % OF HCT-116 CELLS, G2/M

{"columns": ["compound", "% OF HCT-116 CELLS, G2/M"],
 "data": [
  ["COc1cc(/C=C/C(=O)C2CC2)ccc1OCC(=O)O", "41.4%"],
  ["COc1cc(/C=C/C(=O)CC(C)C)ccc1OCC(=O)O", "54.1%"],
  ["COc1cc(/C=C/C(C)=O)ccc1OCC(=O)O [E1]", "50.4%"]
]}

Prompt: Give the measured % OF HCT-116 CELLS, G2/M of COc1cc(/C=C/C(=O)C(C)C)ccc1OCC(=O)O [E2] .
Completion: 56.1%

---

Recorded Cytotoxicity range values for a group of compounds are listed next.
system: HeLa cells; assay: MTT cytotoxicity assay, HeLa; type: cell-based, human; conditions: 72 h, concentration range 1–100 μM

{"columns": ["compound", "metric.name", "val"],
 "data": [
  ["COc1cc(/C=C/C(=O)CC(C)C)ccc1OCC(=O)O", "Cytotoxicity range", "40.39–59.92%"],
  ["COc1cc(/C=C/C(C)=O)ccc1OCC(=O)O [E1]", "Cytotoxicity range", "39.35–61%"],
  ["COc1cc(/C=C/C(=O)C(C)C)ccc1OCC(=O)O [E2]", "Cytotoxicity range", "32.98–71.66%"]
]}

Now turn to the next compound.
Prompt: HeLa cells / Cytotoxicity range / `COc1cc(/C=C/C(=O)C2CC2)ccc1OCC(=O)O` : value?
Completion: 42.39–59.81%

This collection of values is drawn from paper PMC11505670.
